target: T1, human vascular endothelial growth factor receptor-2 Fc chimera (KDR-Fc) (human, UniProt P35968 20-764)
T1 construct: range 1-764; also called human VEGFR-2; not shown: human IgG1 Fc
T1 sequence (P35968 20-764 limits assumed, change not shown, form in doubt): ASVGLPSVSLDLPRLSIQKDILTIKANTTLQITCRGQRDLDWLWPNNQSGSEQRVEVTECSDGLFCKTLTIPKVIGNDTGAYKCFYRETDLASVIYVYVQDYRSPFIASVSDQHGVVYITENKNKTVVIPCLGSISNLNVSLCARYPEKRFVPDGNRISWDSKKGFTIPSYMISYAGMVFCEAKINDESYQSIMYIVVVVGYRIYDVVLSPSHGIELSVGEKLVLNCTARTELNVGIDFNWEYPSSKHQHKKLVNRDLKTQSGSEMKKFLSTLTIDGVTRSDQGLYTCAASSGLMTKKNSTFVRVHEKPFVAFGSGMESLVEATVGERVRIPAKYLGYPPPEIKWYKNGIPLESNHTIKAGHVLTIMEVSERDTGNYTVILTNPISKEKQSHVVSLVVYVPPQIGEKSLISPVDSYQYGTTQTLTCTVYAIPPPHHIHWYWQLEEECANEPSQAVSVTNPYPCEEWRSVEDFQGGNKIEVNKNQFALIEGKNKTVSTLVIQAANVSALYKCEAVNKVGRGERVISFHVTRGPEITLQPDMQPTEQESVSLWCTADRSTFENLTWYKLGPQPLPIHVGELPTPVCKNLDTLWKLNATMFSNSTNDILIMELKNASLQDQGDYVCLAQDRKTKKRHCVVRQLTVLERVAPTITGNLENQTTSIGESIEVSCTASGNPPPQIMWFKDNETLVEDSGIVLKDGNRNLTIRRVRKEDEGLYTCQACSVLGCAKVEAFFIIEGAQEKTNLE
measurement-description: radioactive equilibrium binding, 1 nM KDR-Fc, % of input
metric: Binding to 1 nM KDR, % (%)

4′B11 PR4 (designed binder) EVVAATPTSLLISWRHPHFPTRYYRITYGETGGNSPVQEFTVPLQPPTATISGLKPGVDYTITVYAVTMAHNDHELLTPISINYRT
25

P = 2′Del G11 PR4 (designed binder) EVVAATPTSLLISWRHPHFPTRYYRITYGETGGNSPVQEFTVPLQPPTATISGLKPGVDYTITVYAVTGGQMNRVLMTPISINYRT
Q = 2′Del C1 PR4 (designed binder) EVVAATPTSLLISWRHPHFPTRYYRITYGETGGNSPVQEFTVPLQPPTATISGLKPGVDYTITVYAVTAGLDEHELLIPISINYRT
Q: Compare reported Binding to 1 nM KDR, % values for P and Q . Which is lower? # respond with the chosen item's label
A: P
